target: human calcium-sensing receptor (CaSR) (Homo sapiens); assay: intracellular Ca assay, CaSR antagonist activity in HEK293/hCaSR cells; settings: Fura2-AM, inhibition of response to calcium chloride ligand solution, read-out: IC50 values according to the intracellular Ca assay (CaSR antagonist activity)
Sequence (P41180 20-1078): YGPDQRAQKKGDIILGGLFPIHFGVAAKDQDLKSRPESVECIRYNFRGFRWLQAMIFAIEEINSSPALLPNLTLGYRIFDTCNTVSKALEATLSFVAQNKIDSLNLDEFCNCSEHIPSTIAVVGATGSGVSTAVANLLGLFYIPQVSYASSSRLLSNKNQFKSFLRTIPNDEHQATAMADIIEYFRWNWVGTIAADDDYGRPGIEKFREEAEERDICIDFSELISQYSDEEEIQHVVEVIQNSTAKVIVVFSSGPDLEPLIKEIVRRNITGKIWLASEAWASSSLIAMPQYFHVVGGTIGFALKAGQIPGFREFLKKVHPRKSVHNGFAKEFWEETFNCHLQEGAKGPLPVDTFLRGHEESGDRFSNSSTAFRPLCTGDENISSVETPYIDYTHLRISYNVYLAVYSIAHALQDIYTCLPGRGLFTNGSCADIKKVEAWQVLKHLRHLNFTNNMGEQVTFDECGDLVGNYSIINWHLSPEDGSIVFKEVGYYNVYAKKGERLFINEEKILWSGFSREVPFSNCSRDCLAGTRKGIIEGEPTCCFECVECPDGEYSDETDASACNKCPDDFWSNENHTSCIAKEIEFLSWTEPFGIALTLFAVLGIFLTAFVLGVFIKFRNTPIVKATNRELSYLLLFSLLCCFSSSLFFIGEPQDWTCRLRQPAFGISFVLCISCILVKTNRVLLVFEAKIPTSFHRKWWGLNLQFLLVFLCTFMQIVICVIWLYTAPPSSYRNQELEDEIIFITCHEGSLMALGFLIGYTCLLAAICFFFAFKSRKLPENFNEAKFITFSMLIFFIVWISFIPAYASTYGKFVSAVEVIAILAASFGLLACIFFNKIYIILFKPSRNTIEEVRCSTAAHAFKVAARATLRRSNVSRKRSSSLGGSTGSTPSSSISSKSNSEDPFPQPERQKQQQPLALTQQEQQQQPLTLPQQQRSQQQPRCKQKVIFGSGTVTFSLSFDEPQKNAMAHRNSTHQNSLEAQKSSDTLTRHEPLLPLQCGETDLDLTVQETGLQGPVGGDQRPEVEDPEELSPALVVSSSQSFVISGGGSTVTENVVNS
pIC50: −log10 of the molar value.
measure: pIC50

Here is how some molecules turned out for pIC50.
# cpd-smiles, measure, measurement
records = [
    ("CN(C[C@H](O)CNC(C)(C)CCCc1ccsc1)S(=O)(=O)c1cc(-c2ccc(CCC(=O)O)cc2)cc(C(F)(F)F)c1", "pIC50", "≥ 6.52"),
    ("CN(C[C@H](O)CNC(C)(C)Cc1ccc2ccccc2c1)S(=O)(=O)Cc1cccc(-c2ccc(CCC(=O)O)cc2)c1", "pIC50", "5.52 to 6.00"),
    ("CN(C[C@H](O)CNC(C)(C)Cc1ccc2ccccc2c1)S(=O)(=O)c1cccc(-c2cc3c(c(C(=O)O)c2)OCC3)c1", "pIC50", "5.52 to 6.00"),
    ("CN(C[C@H](O)CNC(C)(C)CC1Cc2ccccc2C1)S(=O)(=O)c1cccc(-c2c(Cl)cc(C(=O)O)cc2Cl)c1", "pIC50", "≥ 6.52"),
    ("CN(C[C@H](O)CNC(C)(C)Cc1ccc(Cl)c(F)c1)S(=O)(=O)c1cccc(-c2ccc(C(=O)O)cc2F)c1", "pIC50", "5.52 to 6.00"),
    ("Cc1ccc(CC(C)(C)NC[C@@H](O)CN(C)S(=O)(=O)c2cccc(-c3cc(F)cc(C(=O)O)c3)c2)cc1F", "pIC50", "5.52 to 6.00"),
    ("Cc1cc(S(=O)(=O)N(C)C[C@H](O)CNC(C)(C)CC2Cc3ccccc3C2)ccc1-c1cccc(CCC(=O)O)c1", "pIC50", "≥ 6.52"),
    ("Cc1cc(-c2ccccc2CS(=O)(=O)N(C)C[C@H](O)CNC(C)(C)Cc2ccc3ccccc3c2)ccc1C(=O)O", "pIC50", "6.00 to 6.52"),
    ("CN(C[C@H](O)CNC(C)(C)Cc1ccc2ccccc2c1)S(=O)(=O)c1ccc(-c2cccc(C=CC(=O)O)c2)cc1", "pIC50", "6.00 to 6.52"),
    ("Cc1ccc(-c2cccc(S(=O)(=O)N(C)C[C@H](O)CNC(C)(C)CC3Cc4ccccc4C3)c2)cc1C(=O)O", "pIC50", "6.00 to 6.52"),
]

Form field pIC50, entry CN(C[C@H](O)CNC(C)(C)Cc1ccc2ccccc2c1)S(=O)(=O)c1ccc(-c2ccc(C(=O)O)cc2)cc1 : 6.00 to 6.52

Form field pIC50, entry CCc1cc(-c2cccc(CCC(=O)O)c2)ccc1S(=O)(=O)N(C)C[C@H](O)CNC(C)(C)CCCc1ccccc1 : ≥ 6.52

Form field pIC50, entry Cc1cc(-c2cccc(S(=O)(=O)N(C)C[C@H](O)CNC(C)(C)CC3Cc4ccccc4C3)c2)ccc1C(=O)O : 6.00 to 6.52

Form field pIC50, entry Cc1ccc(CC(C)(C)NC[C@@H](O)CN(C)S(=O)(=O)c2cccc(-c3cccc(C(=O)O)c3)c2)cc1F : 5.52 to 6.00
